# measurement.description: log D7.4 estimation by HPLC-based method
# Assay type: physicochemical
# stated.conditions: pH 7.4, estimated by HPLC-based method, pH 7.4; read-out: log D7.4
attribute.measured: chromatographic logD

>>> measured_number("CCOC(=O)Nc1ccc(NCc2ccc(F)cc2)cc1N")
2.1

---

# measurement.description: log D7.4 estimation by HPLC-based method
# Type: physicochemical
# stated.conditions: HPLC, Phenomenex Luna 5 μm Phenyl-Hexyl column, pH 7.4, HPLC, calibration D; read-out: logD7.4
# Experimental: The log D7.4 values were estimated using a common HPLC-based method in accordance with guideline OPPTS 830.7570 of the United States Environmental Protection Agency (EPA). […] The reference mixture was measured before and after the substances to be tested. […] The substances to be tested were injected as a solution in methanol (2 mg/mL), and the retention time was determined as the mean value from two measurements.
attribute.measured: chromatographic logD

>>> measured_number("COc1cc(NCc2ccc(F)cc2)ccc1C(=O)NCC(C)C [28a]")
3.79
>>> measured_number("CC(C)CNC(=O)c1ccc(NCc2ccc(F)cc2)cc1N")
2.75
>>> measured_number("CCCNC(=O)c1ccc(NCc2ccc(F)cc2)cc1CC.Cl")
3.23
>>> measured_number("COc1cc(NCc2ccc(F)cc2)ccc1C(=O)NCc1ccc(F)cc1 [28b]")
4.29

FYI, the data here is from paper PMC8908504.
